Origin of measurements: ChEMBL document CHEMBL3120099

target: Sphingosine 1-phosphate receptor 3 (Homo sapiens, UniProt Q99500); experiment: Agonist activity at human recombinant S1P3 receptor expressed in CHO cells assessed as membrane-bound 35S-GTPgammaS incubated 30 mins prior to substrate addition measured after 1 hr by topcount scintillation counting analysis; format: functional, cell-based
Sequence (Q99500 whole entry): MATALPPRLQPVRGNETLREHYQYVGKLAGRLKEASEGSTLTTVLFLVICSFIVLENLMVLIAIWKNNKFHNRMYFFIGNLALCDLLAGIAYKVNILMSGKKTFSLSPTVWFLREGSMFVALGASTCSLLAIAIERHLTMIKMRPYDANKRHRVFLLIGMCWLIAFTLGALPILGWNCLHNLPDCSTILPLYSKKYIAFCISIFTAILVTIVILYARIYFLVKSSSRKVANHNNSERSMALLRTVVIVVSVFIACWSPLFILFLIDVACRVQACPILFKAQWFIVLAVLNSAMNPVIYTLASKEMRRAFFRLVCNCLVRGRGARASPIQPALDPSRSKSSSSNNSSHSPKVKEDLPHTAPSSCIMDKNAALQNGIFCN
I'd appreciate it if you could supply log10 of EC50 values for the items below.
Parameter value (number): base-10 log of EC50 in nM.

Problem: Query: log10 of EC50; subject: "Cc1cc(CCC(=O)c2sc(C)c3c2CCC(C)(C)C3)cc(C)c1OCCO"
Result: 3.65

Problem: Query: log10 of EC50; subject: CCCCc1ccc(-c2nc(-c3cc(C)c(OCC(O)CNC(=O)CO)c(C)c3)no2)s1 (racemic)
Result: 3.10

Problem: Query: log10 of EC50; subject: "CCCc1sc(C(=O)CCc2cc(C)c(OC[C@@H](O)CNC(=O)CO)c(CC)c2)c2c1CC(C)(C)CC2"
Result: 1.40

Problem: Query: log10 of EC50; subject: CCc1cc(CCC(=O)c2sc(C(F)(F)F)c3c2CCC(C)(C)C3)cc(C)c1OCC(O)CNC(=O)CO (racemic)
Result: 2.38

Problem: Query: log10 of EC50; subject: Cc1cc(CCC(=O)c2sc(C)c3c2CCC(C)(C)C3)cc(C)c1OCC(O)CNCCC(=O)O (racemic)
Result: 2.76

Problem: Query: log10 of EC50; subject: CCc1sc(C(=O)CCc2cc(C)c(OCC(O)CO)c(C)c2)c2c1CC(C)CC2 (mixture of isomers)
Result: 2.78

Problem: Query: log10 of EC50; subject: "CCc1sc(C(=O)CCc2cc(C)c(OC[C@@H](O)CO)c(C)c2)c2c1CC1(CCCC1)CC2"
Result: 1.79

Problem: Query: log10 of EC50; subject: "CCc1cc(-c2noc(-c3sc(CC)c4c3CCC(CC)(CC)C4)n2)cc(C)c1OC[C@@H](O)CNC(=O)CO"
Result: 0.08

Problem: Query: log10 of EC50; subject: CCc1c(-c2nc(-c3cc(C)c(OCC(O)CNC(=O)CO)c(C)c3)no2)sc(C)c1CC(C)C (racemic)
Result: 2.24

---

assay: Plasma concentration in Wistar rat at 10 mg/kg, po after 24.8 hrs; assay type: ADME, organism-based; design: dose 10 mg/kg, route oral
Measure name: concentration at 24.8 h (ng/mL)
Give just the number in ng/mL; leave the unit off.

Problem: Query: concentration at 24.8 h; subject: "CCc1cc(-c2noc(-c3sc(CC)c4c3CCC(C)(C)C4)n2)cc(C)c1OC[C@@H](O)CNC(=O)CO"
Result: 680

---

experiment: AUC (0 to 24 hrs) in Wistar rat at 10 mg/kg, po; assay type: ADME, organism-based; set-up: time < 24 hr, dose 10 mg/kg, route oral; details: plasma
I'd appreciate it if you could supply AUC(0-t) at 24 h values for the items below.
Give just the number in ng·h/mL; leave the unit off.

Problem: Query: AUC(0-t) at 24 h; subject: "CCc1cc(-c2noc(-c3sc(CC)c4c3CCC(C)(C)C4)n2)cc(C)c1OC[C@@H](O)CNC(=O)CO"
Result: 28100

Problem: Query: AUC(0-t) at 24 h; subject: CCc1cc(CCC(=O)c2sc(CC)c3c2CCC(C)(C)C3)cc(C)c1OCC(O)CNC(=O)CO (racemic)
Result: 276
